Reported max response values for a set of compounds
assay: qHTS assay for small molecule antagonists of peroxisome proliferator-activated receptor delta signaling (AID 588535); settings: HEK293T PPARd-UAS-bla, beta-lactamase FRET ratio, 18 h; 460 nm channel;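 further: cells co-treated with a PPAR-delta agonist as stimulator during compound exposure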
Records with an inconclusive call do not appear.
Lab book: enter the figure in %, no units written.

Record excerpt, results attached:
Fill in reported max response for this entry: O=C(O)CCSSCCC(=O)O 29.9

Return the recorded max response value; entry: Nc1ccccc1[N+](=O)[O-] 35.9

Give the reported value of max response for this record: CNC(=O)c1ccccc1 1.71

Quickly give me recorded max response for C1CCC2OC2C1 (centres undefined) 38.4

Supply max response value. Item: Cc1cccc([N+](=O)[O-])c1C(=O)O 7.62

Please report max response for the following compound: CCOc1cccc(N)c1 -10.6

---
Please look at this compound and report its max response: CCOCCOCC -23

Kindly indicate its recorded max response. Item: Cc1cc(C)cc(O)c1 32.1

For CC(C)CCOC(=O)/C=C/c1ccccc1 , write its max response. 17.3

====

experiment: qHTS assay for small molecule antagonists of peroxisome proliferator-activated receptor delta signaling (AID 588535); settings: HEK293T PPARd-UAS-bla, beta-lactamase FRET ratio, 18 h; 460 nm channel;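 further: cells co-treated with a PPAR-delta agonist as stimulator during compound exposure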
Records with an inconclusive call do not appear.
Measured Metric: max response (%)
Provide the reading as a plain figure in %.

Known results for compounds:
Dear colleague, please send me the reported max response for NC(=O)c1cccc([N+](=O)[O-])c1 when you can. -10.1

Please look at this compound and report its max response: CCCCC(CC)C(=O)O (stereo not drawn) 18

Tell me its max response given O=c1[nH][nH]c(=O)c2cc([N+](=O)[O-])ccc12 as the entry. 10.6

Look up max response of Cc1ccc(Br)cc1 and report it. 4.44

Others:
Please give the documented max response of O=C(O[C@@H](C(=O)O)[C@@H](OC(=O)c1ccccc1)C(=O)O)c1ccccc1 -10.6

State, in one line, measured max response of C=CCCCC 22.6

Look up and report measured max response for this entry: CCNS(=O)(=O)c1ccc(C)cc1 8.52

Specify max response for O=C(O)CNC(=O)c1ccc(CO)o1 and stop. 35.1

====

biological target: Mitogen-activated protein kinase 10 (Mus musculus); test: JNK3 AlphaScreen Assay (AID 530); conditions: JNK3 lysate, c-Jun phosphorylation; series mostly up to 57.1 µM;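 further: kinase came from lysate of stimulated human HepG2 cells; signal reports phosphorylation of biotinylated GST-cJun 1-79 at Ser73 with 10 µM ATP; on the % scale 0 is the no-effect control and ±100 the full control effect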
Results filed as inconclusive are left out. Active and inactive are the calls of the source. Calls come from the whole dose curve; as a rule, active = well fitted curve in either direction with a large enough effect (not every such curve was filed as active); inconclusive = small, poorly fitted or top-dose-only effect, or another doubt; inactive = flat fitted curve, though single readings scatter.
Measured Metric: outcome

Illustrative cases are given below, each with its answer.
Note outcome for the compound shown: CCCCC(CC)COCC1CO1 (stereo unspecified) inactive

Item CC(=O)c1ccccn1 : provide outcome inactive

Name the recorded outcome of the compound listed here: C/C=C1\CC2C=CC1C2 (stereo unspecified) inactive

Give me measured outcome, please, for this compound: Cc1ccc(Cl)cc1 inactive

Tell us which outcome value is on record for C=C(C)C(=O)OCCCCCCCCCC inactive

# context switch: different compound, same outcome
Specify measured outcome for O=Cc1c(Cl)cccc1Cl . inactive

====

target: Estrogen receptor (Homo sapiens); assay: qHTS assay for small molecule antagonists of estrogen receptor alpha signaling (AID 588513); conditions: ER-alpha-UAS-bla HEK293, beta-lactamase ratio, antagonist mode; series mostly up to 76.9 µM; further: on the % scale 0 is the no-effect control and ±100 the full control effect
Results filed as inconclusive are left out. The source made the active and inactive calls. Calls come from the whole dose curve; as a rule, active = well fitted curve in the direction sought with a large enough effect in the signal ratio, with a control signal flat (not every such curve was filed as active); inconclusive = small, poorly fitted or top-dose-only effect, or effect the other way, or a change in a side signal; inactive = no such curve, though single readings can be large or run the other way; the % refers to the signal ratio.
Measured Metric: outcome

Write down measured outcome (Estrogen receptor (Homo sapiens)) for this compound. Cc1ccccc1C=O inactive

State the measured outcome (Estrogen receptor (Homo sapiens)) of CCCCC(=O)N(C)C inactive

# return outcome for CN(C)CCCCl , test system: Estrogen receptor (Homo sapiens) inactive

State, for Estrogen receptor (Homo sapiens), measured outcome of the compound listed here: Cc1cccc(C(=O)O)c1 inactive

Write outcome of O=C(O)c1cccc(Cl)c1Cl ; system used: Estrogen receptor (Homo sapiens) inactive

New cases:
Print Estrogen receptor (Homo sapiens) outcome for O=C(O)CNC(=O)c1ccc(CO)o1 . inactive

Check Estrogen receptor (Homo sapiens) data and give outcome for Nc1ccc(Cl)cc1[N+](=O)[O-] . inactive

Please report the measured outcome for C=C(C)C(=O)OCC(C)C tested on Estrogen receptor (Homo sapiens). inactive

Please look at Cc1cccc2sc(N)nc12 and tell me its recorded outcome on Estrogen receptor (Homo sapiens). inactive

Given CC(CCl)OC(C)CCl (configuration not stated) , report its outcome on Estrogen receptor (Homo sapiens). inactive

Report outcome from Estrogen receptor (Homo sapiens) testing of CCC(C)(C)C(=O)O inactive

For Estrogen receptor (Homo sapiens), give outcome of the listed compound: Cc1cc(C)cc(O)c1 inactive

====

assay: Cell Viability - BJ (AID 421); settings: BJ fibroblast viability, qHTS;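 further: potency means the concentration at half of the fitted maximal effect; cells exposed to compound for 40 hours at 37 °C before readout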
Inconclusive results are not listed. Calls of active or inactive are those of the source. Calls come from the whole dose curve.
Measured Metric: Potency

In the examples that follow, each entry is paired with its recorded Potency.
Answer with reported Potency of c1ccc2c(c1)Oc1ccccc1S2 > 92 µM (inactive)

Return Potency for the following compound: CC(N)CN (stereo not drawn) > 92 µM (inactive)

For the compound CO[Si](CCCNCCC[Si](OC)(OC)OC)(OC)OC , give its reported Potency. > 92 µM (inactive)

Quick one: give measured Potency for Cc1cc(C(=O)O)ccc1[N+](=O)[O-] > 92 µM (inactive)

Return Potency (reported value) for this compound: CC(=O)Nc1cccc(N)c1 > 92 µM (inactive)

Next:
Using known records, supply Potency for O=C1NC(=O)c2cc([N+](=O)[O-])ccc21 > 92 µM (inactive)

Give the reported value of Potency for this record: CCCCC/C=C/C=C/C=O > 92 µM (inactive)

Supply Potency value. Item: CC(C)(C)c1ccc(OCC2CO2)cc1 (stereo not drawn) > 92 µM (inactive)

====

Biological target: Nuclear receptor ROR-gamma (Homo sapiens) (UniProt P51449)
Sequence (P51449 whole entry, looked up): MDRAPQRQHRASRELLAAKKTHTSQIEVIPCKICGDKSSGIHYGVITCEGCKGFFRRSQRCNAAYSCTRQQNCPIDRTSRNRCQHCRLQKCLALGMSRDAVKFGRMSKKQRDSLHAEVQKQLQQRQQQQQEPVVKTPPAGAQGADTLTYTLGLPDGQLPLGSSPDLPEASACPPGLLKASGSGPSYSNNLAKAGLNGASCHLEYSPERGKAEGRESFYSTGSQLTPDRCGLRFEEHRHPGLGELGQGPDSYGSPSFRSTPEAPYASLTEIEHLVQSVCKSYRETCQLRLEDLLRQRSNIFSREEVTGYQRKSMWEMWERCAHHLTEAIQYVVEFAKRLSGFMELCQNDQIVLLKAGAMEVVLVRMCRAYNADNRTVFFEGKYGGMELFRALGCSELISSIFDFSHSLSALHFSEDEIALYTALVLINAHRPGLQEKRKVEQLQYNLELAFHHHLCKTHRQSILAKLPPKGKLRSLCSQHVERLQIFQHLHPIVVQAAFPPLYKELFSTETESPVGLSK
Experiment: qHTS assay for small molecule antagonists of the retinoid-related orphan receptor gamma (ROR-gamma) signaling pathway (AID 651802);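 further: luciferase reporter luminescence driven by ROR response element; on the % scale 0 is the no-effect control and ±100 the full control effect; nearly all actives have a fitted effect of over 60% in size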
Conditions: ROR-gamma antagonist cell reporter assay; series mostly up to 92.2 µM
Procedure: National Center for Advancing Translational Sciences [NCATS] NIH Chemical Genomics Center [NCGC] National Institutes of Environmental Health Sciences [NIEHS] National Toxicology Program [NTP] […] The CHO cell-based assay utilizes a TET-inducible ROR expression factor and ROR response element-LUC reporter gene. Reporter activity was induced using doxycycline and measured after 16hr incubation. […]
Inconclusive results are not listed. Calls of active or inactive are those of the source. Calls follow the shape of the dose curve; as a rule, active = well fitted inhibition curve with a large enough effect; inconclusive = small, poorly fitted or top-dose-only effect; inactive = no such curve, though single readings can be large or run the other way.
Assign a class; possible classes are label 1 (active), label 0 (inactive)

Recorded call for CCOc1ccc(NC(C)=O)cc1N ? label 0

Recorded call for CCCCC(=O)N(C)C ? label 0

Identify the outcome logged in this assay for the compound shown: CCC(C)(C)C label 0

Write down the call the test reported for this compound. Item: O=C1OC(=O)c2c(Cl)c(Cl)c(Cl)c(Cl)c21 label 0

Please state the recorded outcome for this compound: CCOC(C)(C)C label 0

Short answer needed: outcome of this test for Clc1ccccn1 ? label 0

Record request — test call for C=Cc1ccccn1 label 0

// outcome(item) with item = Cc1ccc(Cl)cc1 label 0

New cases:
Call for entry CCN(CC)c1cccc(O)c1 : label 0

====

In this section, each of the compounds is paired with its reported activation.
biological target: Glucocorticoid receptor (Homo sapiens); assay: qHTS assay for small molecule agonists of glucocorticoid receptor signaling (AID 588532); conditions: HeLa MMTV-bla, beta-lactamase ratio, agonist, 18 h; stronger effect = higher value; percent of dexamethasone control, DMSO zero;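 further: 100% = dexamethasone at 0.1 µM and 0% = DMSO only wells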
Results filed as inconclusive are left out.
Entry rule: numbers only, all in %.

Sample records with activation:
Provide one value: measured activation of Cc1ccc2nc(-c3ccc(N)cc3)sc2c1S(=O)(=O)O 22.8

Please indicate activation recorded for CCCCCCCCCCCCOCC1CO1 (centres undefined) 7.49

Provide measured activation value, entry: c1ccc2c(c1)ccc1ncccc12 -5.6

Please turn your attention to the following entry.
Retrieve activation measured for CN(C)CCCCl and print it. 13.4

====

Assay: Cell Viability - LYMP1-002 - Assay at 16 hr (AID 948);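 further: 0% = DMSO alone and full effect = 92 µM tetraoctylammonium bromide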
Conditions: LYMP1-002 lymphoblastoid cell viability; series mostly up to 92.2 µM
Text: NIH Chemical Genomics Center [NCGC] NIH Molecular Libraries Screening Centers Network [MLSCN] National Institutes of Environmental Health Sciences [NIEHS] National Toxicology Program [NTP] We have developed a 1536-well cell-based assay for quantitative high throughput screening (qHTS) against a number of cell lines to determine in vitro cytotoxicity of small molecules. […] 8. Detection; Luminescence; Viewlux plate reader […]
Inconclusive results are not listed. Calls of active or inactive are those of the source. Calls come from the whole dose curve; as a rule, active = well fitted cell-killing curve with a large enough effect; inconclusive = small, poorly fitted or top-dose-only effect; inactive = flat fitted curve, though single readings scatter.
Measured Metric: outcome

Completed entries (count: 5):
Give reported outcome value for COC(=O)CS inactive

Quick one: give measured outcome for Cc1ccc(C#N)cc1 inactive

Using known records, supply outcome for COC(=O)CC#N inactive

Please look at this compound and report its outcome: CCCCC/C=C/C=C/C=O inactive

Retrieve outcome measured for O=C(O)c1cccc([N+](=O)[O-])c1 and print it. inactive

---
Find the measured outcome of O=Cc1ccc(Cl)cc1 and report it. inactive

Quote outcome reported for O=[N+]([O-])c1cc(C(F)(F)F)ccc1Cl please. inactive

Recall and state the measured outcome for CC(C)CO . inactive

For the compound CNC(=O)c1ccccc1 , give its reported outcome. inactive

Name the recorded outcome of the item C1COC1 in your answer. inactive

Read off the recorded outcome for CCNc1ccccc1 inactive

Supply measured outcome of OC1CCCC1 in your reply. inactive

Supply reported outcome belonging to this compound: CC(=O)c1nccs1 inactive

Quick one: give measured outcome for CCN(Cc1ccccc1)c1ccccc1 inactive

Provide one value: measured outcome of NC(=O)NC(N)=O inactive
